Measured protein stability index of individual entries
B1: IKZF1 (parent)
chain: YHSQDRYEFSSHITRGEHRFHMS

Variants of: B1
experimental_details: protein stability index of a GFP-peptide fusion (GPS, HEK-293T) (PSI 1-6); higher = more stable;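 further: lentivirally expressed fusions sorted by FACS into six bins by GFP to DsRed ratio, PSI derived from sequencing read proportions per bin multiplied by bin number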
measurement_setup: c terminus: native

sequence_data	protein stability index
YHSQDRYEHSSHITRGEHRFHMS [F9H]	2.04
YHSADRYEFSSHITRGEHRFHMS [Q4A]	2.13
CHSQDRYEFSSHITRGEHRFHMS [Y1C]	3.03
YHSQDRYEFSSHITRDEHRFHMS [G16D]	2.52
YHSQDRYEFSSHITRGEHRFHMD [S23D]	1.5
YHSQDRYEFSSHITRGEHRFLMS [H21L]	2.13
YHSQDRVEFSSHITRGEHRFHMS [Y7V]	2
YHSQDRLEFSSHITRGEHRFHMS [Y7L]	2.33
YHSQDRYEFSSHITRGEHRKHMS [F20K]	2.38
YHSQDAYEFSSHITRGEHRFHMS [R6A]	2.22
YHSQDRYEFSSNITRGEHRFHMS [H12N]	2.67
